Catalogue of pIC50 readings, one per entry.
- TESTED_SYSTEM: pEGFR (Tyr1068) in PC-9 cells (Ex19Del) (Homo sapiens (Human), UniProt P00533, DEL746-750)
- Sequence (P00533 other isoform, or with tags, fused parts or gaps del 746-750): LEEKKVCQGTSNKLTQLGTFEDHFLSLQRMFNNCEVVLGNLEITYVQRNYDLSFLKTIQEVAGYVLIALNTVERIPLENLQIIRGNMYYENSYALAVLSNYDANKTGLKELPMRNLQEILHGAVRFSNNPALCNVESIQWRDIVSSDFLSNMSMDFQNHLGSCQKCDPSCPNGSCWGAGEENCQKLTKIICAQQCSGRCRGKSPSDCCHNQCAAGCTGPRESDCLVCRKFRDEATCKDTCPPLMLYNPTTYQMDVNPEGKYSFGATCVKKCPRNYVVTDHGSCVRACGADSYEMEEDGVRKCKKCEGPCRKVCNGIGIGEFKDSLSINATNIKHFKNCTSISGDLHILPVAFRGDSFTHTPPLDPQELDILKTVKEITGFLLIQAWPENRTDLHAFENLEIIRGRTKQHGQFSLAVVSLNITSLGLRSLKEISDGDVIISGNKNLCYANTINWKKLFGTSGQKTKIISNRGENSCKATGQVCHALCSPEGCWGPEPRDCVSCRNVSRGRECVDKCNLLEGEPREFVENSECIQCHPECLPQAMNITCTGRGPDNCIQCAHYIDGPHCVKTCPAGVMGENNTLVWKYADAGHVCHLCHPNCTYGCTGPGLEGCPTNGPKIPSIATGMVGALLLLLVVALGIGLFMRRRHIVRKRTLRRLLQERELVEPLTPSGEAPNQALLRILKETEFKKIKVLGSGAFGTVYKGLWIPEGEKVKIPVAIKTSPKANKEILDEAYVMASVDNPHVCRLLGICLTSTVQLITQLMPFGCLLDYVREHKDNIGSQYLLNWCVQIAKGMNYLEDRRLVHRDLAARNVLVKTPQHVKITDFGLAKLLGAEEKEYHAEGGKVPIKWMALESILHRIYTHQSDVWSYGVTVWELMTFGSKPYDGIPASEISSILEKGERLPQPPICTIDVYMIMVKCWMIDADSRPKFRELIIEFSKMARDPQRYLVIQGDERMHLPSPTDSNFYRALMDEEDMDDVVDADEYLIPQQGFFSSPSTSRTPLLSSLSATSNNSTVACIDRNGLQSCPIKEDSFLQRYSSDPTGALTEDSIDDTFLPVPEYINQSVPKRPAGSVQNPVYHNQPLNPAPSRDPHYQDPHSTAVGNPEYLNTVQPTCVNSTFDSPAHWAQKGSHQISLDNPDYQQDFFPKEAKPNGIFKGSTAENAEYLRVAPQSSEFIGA
- TEST_DETAILS: PC-9 pEGFR AlphaLISA assay
- CONDITION_SUMMARY: 4 hours incubation, p-EGFR (Tyr1068) AlphaLISA, read-out: Ext pEGFR_PC-9 Ex19Del IC50
pIC50: −log10 of the molar value.
MEASURED_ATTRIBUTE: pIC50

* CCOc1cc2ncnc(-c3cn(C)nc3-c3ccccc3)c2nc1NC(=O)[C@@]12C[C@@H]1CN(C)C2 (single isomer, unassigned) | 8.55
* COc1cc2ncnc(-c3cn(C4COC4)nc3-c3ccccc3)c2cc1OC(=O)N1CCN(C)C[C@@H]1C | 8.24
* COc1cc2ncnc(-c3cn(C)nc3-c3ccccc3)c2cc1OC(=O)N1CCN2CCCC2C1 (stereo in doubt) [Example 84] | 8.19

---

- TESTED_SYSTEM: EGFR L858R (Homo sapiens (Human), UniProt P00533, L858R)
- Sequence (P00533 25-1210 L858R): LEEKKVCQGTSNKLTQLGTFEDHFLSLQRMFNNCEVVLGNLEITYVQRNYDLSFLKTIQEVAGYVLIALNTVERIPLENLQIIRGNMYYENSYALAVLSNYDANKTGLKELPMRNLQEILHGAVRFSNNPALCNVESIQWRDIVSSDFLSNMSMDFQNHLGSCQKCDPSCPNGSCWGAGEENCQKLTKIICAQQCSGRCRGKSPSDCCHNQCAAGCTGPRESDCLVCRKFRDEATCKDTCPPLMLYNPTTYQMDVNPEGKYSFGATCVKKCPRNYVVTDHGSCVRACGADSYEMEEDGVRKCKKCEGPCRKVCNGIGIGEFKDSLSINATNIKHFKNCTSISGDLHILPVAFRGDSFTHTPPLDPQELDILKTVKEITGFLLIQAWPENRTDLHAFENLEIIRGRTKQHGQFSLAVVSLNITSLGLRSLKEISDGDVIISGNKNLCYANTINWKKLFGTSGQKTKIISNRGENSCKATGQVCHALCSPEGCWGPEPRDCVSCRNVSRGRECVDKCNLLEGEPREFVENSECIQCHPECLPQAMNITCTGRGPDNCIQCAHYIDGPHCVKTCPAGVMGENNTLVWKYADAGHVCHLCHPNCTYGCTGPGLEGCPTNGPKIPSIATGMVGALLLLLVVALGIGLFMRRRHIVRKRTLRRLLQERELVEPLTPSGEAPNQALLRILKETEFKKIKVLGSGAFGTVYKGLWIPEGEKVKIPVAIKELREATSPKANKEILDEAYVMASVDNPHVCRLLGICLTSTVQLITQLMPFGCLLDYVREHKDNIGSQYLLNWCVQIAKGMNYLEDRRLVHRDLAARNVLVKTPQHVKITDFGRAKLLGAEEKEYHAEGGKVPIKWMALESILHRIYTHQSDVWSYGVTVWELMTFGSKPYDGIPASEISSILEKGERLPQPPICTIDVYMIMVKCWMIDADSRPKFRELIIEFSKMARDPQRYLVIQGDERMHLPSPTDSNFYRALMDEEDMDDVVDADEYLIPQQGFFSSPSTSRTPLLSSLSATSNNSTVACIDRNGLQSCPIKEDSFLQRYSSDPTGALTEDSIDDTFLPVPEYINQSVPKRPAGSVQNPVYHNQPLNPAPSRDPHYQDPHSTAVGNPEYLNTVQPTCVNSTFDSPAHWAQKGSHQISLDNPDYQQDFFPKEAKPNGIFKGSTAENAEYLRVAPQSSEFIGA
- TEST_DETAILS: Biochemical EGFR inhibition assay, EGFR L858R
- CONDITION_SUMMARY: Caliper mobility shift; 1.0 mM ATP or ATP Km; read-out: Enz EGFR_L858R IC50
Threshold check on IC50: strictly below 2 nM is 1.0; on or above 2 nM is 0.0.

- CCOc1cc2ncnc(-c3cn(C)nc3-c3ccccc3)c2cc1OC [Example 25]: 1.0
- COc1cc2ncnc(-c3cn(C)nc3-c3ccccc3)c2nc1NC(=O)C1(C(F)(F)F)CCOCC1 [Example 383]: 0.0
- COc1cc2ncnc(-c3cn(C)nc3-c3ccccc3)c2cc1NC(=O)C1(C)CCC1 [Example 348]: 0.0
- COc1cc2ncnc(-c3cn(C)nc3-c3ccccc3)c2cc1O[C@@H]1CN(C)C[C@@H]1F [Example 5]: 0.0
- COc1cc2ncnc(-c3cn(C)nc3-c3ccccc3)c2cc1NC(=O)c1ccnc(C)c1 [Example 194]: 1.0
- COc1cc2ncnc(-c3cn(C4CC4)nc3-c3ccccc3)c2nc1NC(=O)[C@]12C[C@H]1CN(C)C2 (single isomer, unassigned) [Example 407]: 0.0
- COc1cc2ncnc(-c3cn(C)nc3-c3ccccc3)c2nc1NC(=O)C1(C(F)F)CC1 [Example 369]: 1.0
- CCOc1cc2ncnc(-c3cn(CC)nc3-c3ccccc3)c2cc1CO [Example 124]: 1.0
